- Tested on: hTERT-HMEC;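 also: secreted proteins added to cultured cells, EdU pulse at the end, nuclei found by Hoechst imaging, EdU status from nuclear versus surrounding ring intensity ratio, PBS as neutral control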
- ASSAY_OVERVIEW: percentage of EdU-negative (G0-arrested) nuclei per well, 72 h; higher = more G0 arrest
- CONDITION_SET: protein concentration 0.0225 µM; reference: sequence is the full UniProt precursor, the tested protein was the secreted form or ectodomain
QUANTITY_MEASURED: percentage of EdU-negative (%)
Answers are plain numbers, in %.

Examples with answers:
MNAFLLSALCLLGAWAALAGGVTVQDGNFSFSLESVKKLKDLQEPQEPRVGKLRNFAPIPGEPVVPILCSNPNFPEELKPLCKEPNAQEILQRLEEIAEDPGTCEICAYAACTGC ... 5.03
MRLPGVPLARPALLLLLPLLAPLLGTGAPAELRVRVRLPDGQVTEESLQADSDADSISLELRKPDGTLVSFTADFKKDVKVFRALILGELEKGQSQFQALCFVTQLQHNEIIPSEAMAKLRQKNPRAVRQAEEVRGLEHLHMDVAVNFSQGALLSPHLHNVCAEAVDAIYTRQEDVRFWLEQGVDSSVFEALPKASEQAELPRCRQVGDHGKPCVCRYGLSLAWYPCMLKYCHSRDRPTPYKCGIRSCQKSYSFDFYVPQRQLCLWDEDPYPG [Q86UD1] ... 4.6

Request: Name the recorded percentage of EdU-negative of the sequence listed here: MKGILVAGITAVLVAAVESLSCVQCNSWEKSCVNSIASECPSHANTSCISSSASSSLETPVRLYQNMFCSAENCSEETHITAFTVHVSAEEHFHFVSQCCQGKECSNTSDALDPPLKNVSSNAECPACYESNGTSCHGKPWKCYEEEQCVFLVAELKNDIESKSLVLKGCSNVSNATCQFLSGENKTLGGVIFRKFECANVNSLTPTSAPTTSHNVGSKASLYLLALASLLLRGLLP [Q6UX82]
Response: 4.63
